Each item that follows carries a reported pEC50.
Tested on: HCV (Ib) RNA replication
assay.remarks: Cell-based luciferase reporter HCV (1b) RNA replication assay (replicon cell lines Huh-7 5.2 and ET)
Parameters: species or system Hepatitis C virus
reported.conditions: Hepatitis C virus, Huh-7, 96 h, HCV 1b genotype replicon, luciferase readout, 4 days incubation; read-out: EC50_1b
pEC50: −log10 of the molar value.
measured.endpoint: pEC50

[
  {
    "line.notation": "COC(=O)N[C@H](C(=O)N1C[C@@H](C)C[C@H]1c1nc2cc(-c3ccc(-c4ccc5[nH]c([C@@H]6C[C@H](C)CN6C(=O)[C@H](C(C)C)N(C)C(=O)OC)nc5c4)c(F)c3)ccc2[nH]1)C(C)C",
    "measured.endpoint": "pEC50",
    "endpoint.value": "≥ 8.30"
  },
  {
    "line.notation": "COC(=O)N[C@H](C(=O)N1CCC[C@H]1c1nc2cc(-c3nnc(-c4ccc5[nH]c([C@@H]6CCCN6C(=O)[C@@H](NC(=O)OC)C(C)C)nc5c4)s3)ccc2[nH]1)C(C)C",
    "measured.endpoint": "pEC50",
    "endpoint.value": "≥ 8.30"
  },
  {
    "line.notation": "COC(=O)N[C@H](C(=O)N1CCC[C@H]1c1nc2cc(-c3ccc(-c4ccc5nc([C@@H]6CCCN6C(=O)[C@@H](NC(=O)OC)C(C)C)[nH]c5c4)cc3)ccc2[nH]1)C(C)C",
    "measured.endpoint": "pEC50",
    "endpoint.value": "≥ 8.30"
  },
  {
    "line.notation": "COC(=O)N[C@H](C(=O)N1CCC[C@H]1c1nc2cc(-c3cnc(-c4ccc5[nH]c([C@@H]6CCCN6C(=O)[C@@H](NC(=O)OC)C(C)C)nc5c4)s3)ccc2[nH]1)C(C)C",
    "measured.endpoint": "pEC50",
    "endpoint.value": "5.30 to 8.30"
  },
  {
    "line.notation": "COC(=O)N[C@@H](C(=O)N1CCC[C@H]1c1nc2cc(-c3ccc(-c4ccc5[nH]c([C@@H]6CCCN6C(=O)[C@H](NC(=O)OC)C(C)C)nc5c4)cc3)ccc2[nH]1)C(C)C",
    "measured.endpoint": "pEC50",
    "endpoint.value": "5.30 to 8.30"
  },
  {
    "line.notation": "COC(=O)N[C@H](C(=O)N1CCC[C@H]1c1nc2cc(C#Cc3ccc4nc([C@@H]5CCCN5C(=O)[C@@H](NC(=O)OC)C5CCCCC5)[nH]c4c3)ccc2[nH]1)C(C)C",
    "measured.endpoint": "pEC50",
    "endpoint.value": "≥ 8.30"
  },
  {
    "line.notation": "COC(=O)N[C@H](C(=O)N1CCC[C@H]1c1nc2ccc(N3CCN(c4ccc5nc([C@@H]6CCCN6C(=O)[C@@H](NC(=O)OC)C(C)C)[nH]c5c4)CC3)cc2[nH]1)C(C)C",
    "measured.endpoint": "pEC50",
    "endpoint.value": "≥ 8.30"
  },
  {
    "line.notation": "CC(=O)N[C@H](C(=O)N1CCC[C@H]1c1nc2cc(C#Cc3ccc4[nH]c([C@@H]5CCCN5C(=O)[C@@H](NC(C)=O)C(C)C)nc4c3)ccc2[nH]1)C(C)C",
    "measured.endpoint": "pEC50",
    "endpoint.value": "5.30 to 8.30"
  },
  {
    "line.notation": "COC(=O)N[C@H](C(=O)N1CCC[C@H]1c1nc2cc(C#Cc3ccc4[nH]c([C@@H]5CCCN5C(=O)[C@H](NC(=O)OC)c5ccccc5)nc4c3)ccc2[nH]1)C(C)C",
    "measured.endpoint": "pEC50",
    "endpoint.value": "≥ 8.30"
  },
  {
    "line.notation": "COC(=O)N[C@H](C(=O)N1C[C@@H](F)C[C@H]1c1nc2cc(-c3ccc(-c4ccc5nc([C@@H]6C[C@H](F)CN6C(=O)[C@@H](NC(=O)OC)C(C)C)[nH]c5c4)cc3)ccc2[nH]1)C(C)C",
    "measured.endpoint": "pEC50",
    "endpoint.value": "≥ 8.30"
  },
  {
    "line.notation": "CC(C)(C)OC(=O)N[C@H](CC1CCC1)C(=O)N1CCC[C@H]1c1nc2cc(C#Cc3ccc4[nH]c([C@@H]5CCCN5C(=O)[C@@H](CC5CCC5)NC(=O)OC(C)(C)C)nc4c3)ccc2[nH]1",
    "measured.endpoint": "pEC50",
    "endpoint.value": "≥ 8.30"
  },
  {
    "line.notation": "COC(=O)N[C@H](C(=O)N1CCC[C@H]1c1nc2cc(-c3ccc(-c4ccc5nc([C@@H]6CCCN6C(=O)[C@@H](NC(=O)OC)C(C)C)[nH]c5c4)cn3)ccc2[nH]1)C(C)C",
    "measured.endpoint": "pEC50",
    "endpoint.value": "≥ 8.30"
  },
  {
    "line.notation": "C[C@H](C(=O)N1CCC[C@H]1c1nc2cc(C#Cc3ccc4[nH]c([C@@H]5CCCN5C(=O)[C@@H](C)N5CCCC5=O)nc4c3)ccc2[nH]1)N1CCCC1=O",
    "measured.endpoint": "pEC50",
    "endpoint.value": "≥ 8.30"
  },
  {
    "line.notation": "CC(C)(C)OC(=O)N1CC(F)(F)C[C@H]1C(=O)N1CCC[C@H]1c1nc2cc(C#Cc3ccc4[nH]c([C@@H]5CCCN5C(=O)[C@@H]5CC(F)(F)CN5C(=O)OC(C)(C)C)nc4c3)ccc2[nH]1",
    "measured.endpoint": "pEC50",
    "endpoint.value": "5.30 to 8.30"
  },
  {
    "line.notation": "COC(=O)N[C@H](C(=O)N1CC[C@H]1c1nc2ccc(-c3ccc(-c4ccc5nc([C@@H]6CCN6C(=O)[C@@H](NC(=O)OC)C(C)C)[nH]c5c4)cc3)cc2[nH]1)C(C)C",
    "measured.endpoint": "pEC50",
    "endpoint.value": "≥ 8.30"
  }
]
